This collection of values is drawn from PubChem BioAssay AID2052.

- protocol_notes: murine CD8 T cell vesicle adhesion modulation – mouse 2C CD8+ T cells, flow cytometry, primary screen (AID 2052)
- condition_summary: 2C CD8+ T cell-vesicle binding, at 7 µM
About 220 (0.067%) of roughly 330,000 compounds were called active.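 How the source made its calls: active means response, share of CD8 T cells binding vesicles, and their 90th percentile fluorescence all below set limits (cut at about 80% in these data, passing the limit was not always enough); inactive means the rest, inconclusive results apart.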 Many of the other results were omitted from the sample, so actives are more common in it than they were.
Write down one outcome, taken from active, inactive

1. COCCn1nnnc1C(c1cc2ccc(OC)cc2[nH]c1=O)N1CCc2ccccc2C1 (stereo not given)
active
2. COc1ccc(OC)c(C(c2nnnn2C(C)(C)C)N2CCc3ccccc3C2)c1 (stereo not given)
inactive
3. Cc1nn(CCOc2ccc(Br)cc2)c(C)c1[N+](=O)[O-]
inactive
4. CCOc1ccc2[nH]c(=O)c(C(c3nnnn3CCOC)N3CCOCC3)cc2c1 (stereo not given)
inactive
5. O=C(Nc1ccc(CSc2ccccc2)cc1)c1ccc(CN2CCOCC2)cc1
inactive

Now for a further molecule.
Test call for this molecule, please: `CN1C(=O)/C(=C/C=C2\SCCN2C)OC1=S`
inactive

* * *

- protocol_notes: murine CD8 T cell vesicle adhesion modulation – mouse 2C CD8+ T cells, flow cytometry, primary screen (AID 2052);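 on double positive events: binding gate set so that unloaded-vesicle control wells show 10% double positive cells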
- condition_summary: 2C CD8+ T cell-vesicle binding, at 7 µM, stronger effect = lower value; measured here: CD8+ vesicle-bound cell fraction
Hit rate of the full screen: of about 330,000 compounds, about 220 (0.067%) were called active. This excerpt belongs to a sample that is enriched for actives.
Answer each item with its documented double positive events.

Solved cases below.
1) COc1cc(N)c(Cl)cc1C(=O)OCC(=O)c1ccc2c(c1)NC(=O)CO2
29.1%
2) Cc1sc2ncnc(SCC(=O)Nc3ccc(CN4CCCC4)cc3)c2c1C
35.3%
3) CCCN1CCN(C(=O)Cn2ncc3ccccc32)CC1
45.8%

Required: double positive events, one value per molecule below.
1. COc1ccccc1C(=O)NC(CCSC)C(=O)NNC(=O)c1csc(N2CCOCC2)n1 (stereo not given)
2. O=C(COC(=O)Cc1c[nH]c2ccccc12)NCCc1ccccc1
3. COc1ccc(C2=Nn3c(nnc3-c3ccccc3OC)SC2)cc1OC1CCCC1

["27.1%", "19.5%", "2.5%"]

Required: double positive events, one value per molecule below.
1. OCC(CO)(CO)NCc1ccc(-c2ccccc2)cc1
2. COc1cc(NC(=S)NNC(=O)CC(C)C)c(OC)cc1Cl
3. O=C(c1ccco1)N1CCN(C(=O)C2c3ccccc3Oc3ccccc32)CC1

1. 35.7%
2. 66.1%
3. 0%

Required: double positive events, one value per molecule below.
1. Cc1cc(C)c(S(=O)(=O)c2cc(F)ccc2C)c(=O)[nH]1
2. CC(=O)c1ccc(N2CCN(CC(=O)Nc3ccccc3N3CCOCC3)CC2)cc1
3. Cc1ccccc1NC(=O)Nc1ccccc1N1CCCCC1
4. O=C(CN1CCN(C2CCCCC2)CC1)Nc1ccccc1N1CCCCC1
5. COc1ccc(CCNC(=O)c2ccccc2OCc2ccccc2)cc1
6. O=C(NCc1ccc2c(c1)OCO2)c1ccc(Cl)s1

1. 44.2%
2. 42.5%
3. 27.3%
4. 6.3%
5. 12.3%
6. 0%

Required: double positive events, one value per molecule below.
1. O=C(O)c1[nH]c2ccccc2c1C(c1cccc(O)c1)c1c(C(=O)O)[nH]c2ccccc12
2. O=C(Nc1cccn(Cc2c(Cl)cccc2Cl)c1=O)c1ccc(Cl)cc1
3. Cc1ccc(-n2nc3c(c2NC(=O)CCC2CCCCC2)CS(=O)C3)cc1 (stereo not given)
4. CCN1CCN(C(=O)c2cc3cc4ccc(OC)cc4nc3s2)CC1
5. COc1ccc(/C=C(/NC(=O)c2ccccc2)C(=O)Nc2cccc(C(=O)O)c2)cc1
6. CS(=O)(=O)c1ccc(C(=O)NNC(=O)c2cccs2)cc1
7. CNC(=O)c1nnn(-c2ccccc2)c1C(=O)NC
8. CN(C)S(=O)(=O)c1cccc(NC(=O)COc2ccc3ccccc3c2)c1

1: 36.2%; 2: 24.7%; 3: 41.6%; 4: 24.6%; 5: 39.2%; 6: 52.2%; 7: 57.6%; 8: 30.4%
